These entries and their values trace back to patent US9107411B2.

Assay: logP (HPLC-MS)
Type: physicochemical
Conditions: HPLC, reversed-phase column (C18), 43° C., acidic range pH 2.7, EEC directive 79/831 Annex V.A8; two values = both regioisomers (G = N)
assay_endpoint: log p
Respond with the number and no other words.

Take a look at these entries with their results.
> print(dat)
                                   compound  assay.endpoint  measured.value
1  CCn1c(C(=O)NC(c2ccc(F)c(F)c2)C(F)(F)F)cc2cc(C(=O)NC(C)C[S+](C)[O-])c(C)cc21 (centres unmarked) [Compound 321]           log p            2.76
2  CCn1c(C(=O)NC(c2cc(Cl)c(F)c(Cl)c2)C(F)(F)F)cc2cc(C(=O)NC3(C#N)CC3)c(Cl)cc21 (centres unmarked) [Compound 311]           log p            4.19
3  CCn1c(C(=O)NC(c2cc(Cl)cc(Cl)c2)C(F)(F)F)cc2cc(C(=O)NC3(C#N)CC3)c(C)cc21 (centres unmarked) [Compound 291]           log p            4.07
4  CCn1c(C(=O)NC(c2cccc(C(F)(F)F)c2)C(F)(F)F)cc2cc(C(=O)NC(C#N)c3ccccc3)c(Cl)cc21 (centres unmarked) [Compound 318]           log p            4.37
5  O=C(NC1CC1)c1cc2nc(C(=O)NC(c3cccc(Br)c3)C(F)(F)F)n(C3CC3)c2cc1Cl (centres unmarked) [Compound 314]           log p            3.43
6  CCn1c(C(=O)NC(c2cc(Cl)c(F)c(Cl)c2)C(F)(F)F)cc2cc(C(=O)NC3(C#N)CC3)c(C)cc21 (centres unmarked) [Compound 290]           log p            4.13

Quick note, log p for CCn1c(C(=O)NC(c2cc(Cl)c(F)c(Cl)c2)C(F)(F)F)cc2cc(C(=O)NC3CC3)c(C)cc21 (centres unmarked) [Compound 296] landed at 4.16

// log p value for CCOCn1c(C(=O)NC(c2cccc(C(F)(F)F)c2)C(F)(F)F)cc2cc(C(=O)NC3(C#N)CC3)c(Cl)cc21 (centres unmarked) [Compound 287] : 3.70

Just so you know, measured log p for C=CCN(C(=O)c1cc2nc(C(=O)NC(c3ccc(F)c(Cl)c3)C(F)(F)F)n(CC=C)c2cc1Cl)C1CC1 (centres unmarked) [Compound 303] came out at 4.75

Consider COC(=O)Cn1c(C(=O)NC(c2cccc(C(F)(F)F)c2)C(F)(F)F)cc2cc(C(=O)NC3(C#N)CC3)c(Cl)cc21 (centres unmarked) [Compound 326] . Its measured log p is 3.36

GET /value?item= CCCn1c(C(=O)NC(c2cccc(C(F)(F)F)c2)C(F)(F)F)cc2cc(C(=O)NC3(C#N)CC3)c(Cl)cc21 (centres unmarked) [Compound 288] &field=log p returns 4.03

The recorded log p for CCn1c(C(=O)NC(c2ccc(Cl)c(Cl)c2)C(F)(F)F)cc2cc(C(=O)NC3(C#N)CC3)c(Cl)cc21 (centres unmarked) [Compound 316] is 4.06

Per the record, CCn1c(C(=O)NC(c2ccc(F)c(C(F)(F)F)c2)C(F)(F)F)nc2cc(C(=O)NC3CC3)c(Br)cc21 (centres unmarked) [Compound 332] has log p of 3.76

Lab note: CCn1c(C(=O)NC(c2cc(F)cc(C(F)(F)F)c2)C(F)(F)F)cc2cc(C(=O)NC3(C#N)CC3)c(C)cc21 (centres unmarked) [Compound 331] gave log p of 4.02
